# Read-out: Protein phosphatase 2A (PPP2R4), PTPA (gene 5524)
# TEST: LTEA_HepaRG_PPP2R4: Life Technologies and Expression Analysis (LTEA) Assay for Protein phosphatase 2A (PPP2R4) using HepaRG (AID 2283522)
# MEASUREMENT PARAMETERS: mRNA level, 48 h; actives raise or lower the signal
# Procedure: LTEA_HepaRG is a cell based, multiplexed-readout assay that uses HepaRG, a human liver cell line, with measurements taken at 48 hours after chemical dosing on a 96-well plate.LTEA_HepaRG_PPP2R4 is one of 102 assay component(s) measured in the LTEA HepaRG cell culture assay. It is a marker of Cell proliferation, survival, death.Data from the assay component LTEA_HepaRG_PPP2R4 was analyzed into 1 endpoint. […]
Active and inactive are the calls of the source. Rule for the calls: active = hit-call score of the fitted dose curve at least 0.9, where 1 is the maximum; inactive = score below 0.9.
Can you answer with just one of these options? active, inactive

Exam item: Recorded test outcome, item "O=C1O[C@H]([C@H](O)CO)C(O)=C1O"
Marked response: inactive

Exam item: Per the records of this test, what outcome belongs to "N[C@@H](Cc1c[nH]c2ccccc12)C(=O)O" ?
Marked response: inactive

Exam item: State the result this test recorded for "O=NO" .
Marked response: inactive

Exam item: Lab log entry: "CC(C)COC(=O)CCCCC(=O)OCC(C)C" — outcome as called in the assay?
Marked response: inactive

Exam item: So what was the verdict on "O=C1NC(=O)C(c2ccccc2)(c2ccccc2)N1" in this test?
Marked response: inactive

Exam item: # lookup: test call for "O=[Si]=O"
Marked response: inactive

Exam item: Hey, what did the test say about "CC(=O)S[C@H](C(=O)N[C@H]1Cc2ccccc2[C@H]2CCC[C@@H](C(=O)O)N2C1=O)C(C)C" ?
Marked response: inactive

Exam item: Recorded test call requested for "Nc1nc(Cl)nc2c1ncn2[C@H]1C[C@H](O)[C@@H](CO)O1"
Marked response: active

Exam item: What outcome does the record of this test show for CC(=O)OC1CC(C)OC(C)O1 (centres undefined) ?
Marked response: inactive

Exam item: Test call for this compound, please: "O=C(N[C@@H](c1ccccc1)[C@@H]1CCCCN1)c1cccc(C(F)(F)F)c1Cl"
Marked response: active

Exam item: Give the logged outcome of this assay for the following compound: "OCC(CO)n1cnc(-c2ccc(F)cc2)c1-c1ccnc(Oc2ccccc2)n1"
Marked response: inactive

Exam item: # lookup: test call for "O=C(O)c1cccnc1"
Marked response: inactive

Exam item: Fill in: this test's call for "S=c1[nH]c2ccccc2s1" is ___
Marked response: inactive

Exam item: Hello, I am checking results. What call was entered for "CO[C@@H]1COCC[C@@H]1N[C@@H]1CC[C@@](C(=O)N2CCc3ncc(C(F)(F)F)cc3C2)(C(C)C)C1" ?
Marked response: inactive

Exam item: Could you check what this test reported for "C/C=C/C=C/C(=O)O" ?
Marked response: inactive

Exam item: Hi, sorry to bother you, what did the test record for "COc1ccc(OC(F)(F)F)cc1CN[C@H]1CCCN[C@H]1c1ccccc1" ?
Marked response: active

Exam item: Returns: the outcome recorded for CC(=O)CC(c1ccccc1)c1c(O)c2ccccc2oc1=O (centres undefined) in this assay.
Marked response: inactive

Exam item: How was "C=CCc1ccc(OC)c(OC)c1" classified in this test?
Marked response: inactive

Exam item: Each compound tested received a call. Report the one for "Cc1cc(Cc2ccc(N)c(C)c2)ccc1N" .
Marked response: inactive

Exam item: Hey, what did the test say about "O=C1c2c(O)cccc2Cc2cccc(O)c21" ?
Marked response: inactive

Exam item: I would be grateful if you could indicate the recorded call for CC(COCC(C)OC(=O)c1ccccc1)OC(=O)c1ccccc1 (centres undefined) .
Marked response: inactive

Exam item: Write down the call the test reported for this compound. Item: "C/C=C/c1ccc(OC)cc1"
Marked response: inactive

Exam item: Given "CC(N)=O" , state the outcome it received in this test.
Marked response: inactive

Exam item: GET /call?item= "CCCC(=O)O" returns the recorded outcome of this test.
Marked response: inactive

Exam item: Short answer needed: outcome of this test for "Cc1ccc(-c2cc(C(F)(F)F)nn2-c2ccc(S(N)(=O)=O)cc2)cc1" ?
Marked response: inactive

Exam item: Called result for "Oc1ccc(O)cc1"
Marked response: inactive

Exam item: Hello, I am checking results. What call was entered for "OCC(O)CO" ?
Marked response: inactive

Exam item: Dear all, I need the recorded test outcome for CCC(C)N(C)C(=O)c1cc2ccccc2c(-c2ccccc2Cl)n1 (centres undefined) , thank you.
Marked response: inactive

Exam item: Identify the outcome logged in this assay for the compound shown: "Cc1occc(=O)c1O"
Marked response: inactive
